Tested on: Plasmodium falciparum
Experiment: Primary screen in NF54 nanoGlo assay, in single point, at 2uM, 72h; a lower Z score goes with more inhibition
Assay type: functional, Erythrocyte
Settings: timepoint 72 hour
Hit rate of the full screen: of about 150,000 compounds, about 540 (0.36%) showed an effect of 50% or more. What follows is part of a selection rich in strong results, with near analogues and random picks from the rest.
Quantity: Z score

>>> assay_value("CN(C)CC12CNCC1CN(c1ccnc3cc(Cl)ccc13)C2 (configuration not stated)")
-19.2
>>> assay_value("CCc1nnc(NCc2ccc(C)nc2N2CCCC2)nc1CC")
2.94
>>> assay_value("CC(C)c1nc(N2CCC[C@@]3(CCNC3)C2)c2cc[nH]c2n1")
-0.48
>>> assay_value("Cc1ccc([C@@H](O)CNCc2cc(O)cc(Cl)c2)cc1")
-1.59
>>> assay_value("Fc1ccc(C2=CCN(C[C@@H]3CCCN4CCCC[C@H]34)CC2)cc1")
-0.03
>>> assay_value("O[C@@H](CNCc1ccc2c(c1)CCO2)c1ccc(F)c(F)c1")
-12.64
>>> assay_value("Cc1ccc(CNc2ncnc(N)c2Cl)c(N2CCCC2)n1")
-8.64
